protocolDescription: antimalarial activity against Dd2 strain (AID 2302)
conditionDescription: P. falciparum Dd2 in RBCs, LDH growth readout, 72 h; at 2 µM; hits give high values
Give Criterion met when the value for growth inhibition is at least 80%. Give Criterion not met when it is less.

Answered cases to consult:
COc1cc2ccccc2c(CNCCCCCCNCc2c(OC)c(OC)cc3ccccc23)c1OC    Criterion met
O=C(/C=C/c1ccc(Cl)c(Cl)c1)NC1CCC(CN2CCC(c3nc4ccccc4n3CCCO)CC2)CC1 (centres undefined)    Criterion not met
COCCn1c(SC(C)C(=O)Nc2cc(C(F)(F)F)ccc2Cl)nc2ccccc2c1=O (centres undefined)    Criterion met

In: Tell me whether growth inhibition is at least 80% here: `Cc1csc(-c2nonc2NC(=O)COc2ccccc2C(C)C)n1`
Out: Criterion met

In: Dear colleague, could you confirm whether `Nc1cnc(C#Cc2cc3ncnc(N(CCN4CCOCC4)c4ccc(OCc5cccc(F)c5)c(Cl)c4)c3s2)cn1` has growth inhibition at or above 80%?
Out: Criterion not met

In: Is growth inhibition at least 80%? Consider O=C(C1CCCC1)N1CCOC(CCN2CCC(c3ccccc3)CC2)(c2ccc(Cl)c(Cl)c2)C1 (centres undefined)
Out: Criterion not met

In: Does growth inhibition meet or surpass 80% for `CCCCCCCN(Cc1ccc(OC(C)(C)C(=O)OCC)cc1)C(=O)Nc1ccccc1OC(F)(F)F` ?
Out: Criterion not met

In: hey, is growth inhibition for this one >= 80%? `CN(C)c1ccc(CN2CCC(NC(=O)c3ccc(-c4cccc(Cl)c4)s3)CC2)cc1`
Out: Criterion not met

In: Item `COc1cc(C(=O)Nc2cccc(-c3cn4ccc(C)cc4n3)c2)cc(OC)c1OC` with growth inhibition of 80% or above?
Out: Criterion met
